- Tested on: HOP-92 NSCLC
- Test name: NCI-60 one-dose screen, 48 h
- Cond: 10 µM unless noted
This is part of a sample that, as a whole, favours compounds with a hit. Of some 83,000 tested, about 20% had one in any assay. Active and inactive are the calls of the source. The calls were made as follows: active = growth percent below 10; inactive = the rest.
// one of 1 (yes) (active), 0 (no) (inactive), no free text

Use these answered entries as a reference point.
COc1cccc(-c2nc3occn3c2-c2ccnc(NCCCNS(=O)(=O)c3ccc(C(F)(F)F)cc3)n2)c1 : 0 (no)
COc1ccc(C(=O)c2cc(OC)c(OC)c(OC)c2)cc1O : 0 (no)
Nc1nc(Nc2ccccc2SSc2ccccc2Nc2nc(N)nc(-c3cccs3)n2)nc(-c2ccsc2)n1 : 0 (no)
CCN(CC)c1ccc(C(=O)c2ccccc2)cc1 : 0 (no)
COc1cc(C2=C(c3cn(C)c4ccccc34)COC2=O)cc(OC)c1OC : 0 (no)

INPUT: So what was the verdict on N#CC1=C(N)Oc2c(cnn2-c2ccc([N+](=O)[O-])cc2[N+](=O)[O-])C1c1ccccc1 (stereo not given) in this test?
OUTPUT: 0 (no)

INPUT: // param item: CN1[C@@H]2CC[C@H]1/C(=C\c1ccccc1)C(=O)/C2=C/c1ccccc1 ; yields the recorded call
OUTPUT: 0 (no)

INPUT: Assay outcome for CCN1Cc2nc3sc(C)c(C)c3c(=O)n2C=C1C : what was it?
OUTPUT: 1 (yes)

INPUT: Fill in: this test's call for OCc1cnccc1NCCCCOc1ccc(Oc2ccccc2)cc1 is ___
OUTPUT: 0 (no)

INPUT: Fill in: this test's call for CC(=O)Nc1ccc(-c2ccc3c(c2)NC(=O)/C3=C\c2ccc[nH]2)cc1 is ___
OUTPUT: 0 (no)

INPUT: Name the outcome recorded for COc1ccc(/C=C/c2nc(Nc3ccc(Cl)cc3)c3ccccc3n2)cc1 in the assay.
OUTPUT: 0 (no)

INPUT: Which outcome did this test record for the molecule O=C(Nc1ccccc1)Nc1ccc2cc3ccc(NC(=O)Nc4ccccc4)cc3nc2c1 ?
OUTPUT: 0 (no)

INPUT: Per the records of this test, what outcome belongs to CC1(C)NCCC[C@]2(C)[C@H]3CC[C@@H]4[C@H]5[C@H](C(=O)/C=C/c6ccco6)CC[C@]5(CO)CC[C@@]4(C)[C@]3(C)CC[C@@H]12 ?
OUTPUT: 0 (no)

INPUT: Hey, what did the test say about CCOc1ccc(/C=N/Nc2cc(C)nc3ccc(Br)cc23)cc1 ?
OUTPUT: 0 (no)

INPUT: Could you check what this test reported for CCCCC[n+]1ccc(SCC(=O)N(C)c2ccc(Oc3ccccc3)cc2)c2ccccc21 ?
OUTPUT: 0 (no)

====

This listing pairs compounds with measured growth.
- Tested on: RXF 393 renal
- Test name: NCI-60 one-dose screen, 48 h (100 = growth as untreated, 0 = no growth, -100 = all killed)
- Cond: 10 µM unless noted
Compounds without any hit were thinned out: in the full panel of roughly 83,000, 20% have a hit.
Quick reminder: number only, in %, skip the unit.

Please review the entries below; each comes with its answer.
CCCN1[C@@H]2CC[C@H]1/C(=C\c1ccc(OC)c(OC)c1)C(=O)/C2=C/c1ccc(OC)c(OC)c1 : 58.3
NS(=O)(=O)c1ccc(CCN2C(=O)c3cc(Cl)c(Cl)cc3C2=O)cc1 : 120
CN1C(=O)NC(c2ccc3c(c2)OCO3)C=C1c1ccccc1 (centres undefined) : 91.2
CC(=O)Nc1cccc(-c2ccc3c(c2)NC(=O)/C3=C\c2ccc[nH]2)c1 : 54.3
c1ccc(Cn2cnc3ccc(-c4nc(-c5ccc6c(c5)ncn6C5CCCCC5)cn5ccnc45)cc32)cc1 : -76.9

INPUT: Param readout= growth; system= RXF 393 renal; entry= O=c1ccc(-c2nc(N3CCOCC3)c3ccccc3n2)c[nH]1 ; returns value.
OUTPUT: 103

INPUT: Lab note: need growth with RXF 393 renal for entry CCc1c2c(nc3ccc(OCc4ccc(B(O)O)cc4)cc13)-c1cc3c(c(=O)n1C2)COC(=O)[C@]3(O)CC , please look it up.
OUTPUT: -45.5

INPUT: What growth appears in the records for this compound with RXF 393 renal? O=C(/C=C/c1ccc[nH]1)c1ccc(-n2ccc(C(F)(F)F)n2)c(F)c1
OUTPUT: 91.1

INPUT: Observed growth on RXF 393 renal for COc1c(Cl)c2c(c(OC)c1OC)-c1ccc(SC)c(=O)cc1[C@@H](NC(=O)OCC(F)(F)F)CC2 , please.
OUTPUT: 18.7

====

- Test system: OVCAR-4 ovarian
- Test name: NCI-60 one-dose screen, 48 h (100 = growth as untreated, 0 = no growth, -100 = all killed)
- Cond: 10 µM unless noted
- Protocol: Growth inhibition of the OVCAR-4 human tumor cell line is measured as a screen for anti-cancer activity. Cells are grown in 96 well plates and exposed to the test compound for 48 hours. Compounds are tested at a single concentration, which is 10^-5 M for most compounds. The reported endpoint is percent growth (GI% or GIPRCNT), where numbers from 0 - 100% represent growth inhibition, and numbers from -100% - 0 represent cell death. For example, a value of 40 represents 60% growth inhibition. […]
About 83,000 compounds went through this panel and 20% of them were active in at least one assay; those are over-represented in the sample as a whole.
Measurement kind: growth (%)
Write the number in % without appending the unit.

A selection of reference data follows.
CC(C)=CCC[C@](C)(O)[C@H]1CC[C@]2(C)[C@@H]1CC[C@@H]1[C@@]3(C)C/C(=C/c4ccccc4)C(=O)C(C)(C)[C@@H]3CC[C@]12C : 89.2
Cc1nc2sccn2c1-c1nc2sccn2c1/C=C1/C(=O)Nc2ccccc21 : 63.6
COc1ccc(CC(C)=C(c2ccc(OCCN3CCCCCC3)cc2)c2ccc(OCCN3CCCCCC3)cc2)cc1 : -83.9
Cc1ccc(-c2[nH][nH]c(=O)c2-c2nc3ccccc3s2)cc1 : 105
CC(c1ccccc1)C(C(=O)c1ccccc1)c1ccccc1 (centres undefined) : 96
CC(C)(C)CC(C)(C)n1nnnc1C(NC12CC3CC(CC(C3)C1)C2)c1ccccc1 (centres undefined) : 88.4
CC(=O)N1N=C(c2ccc(-n3ccc(C(F)(F)F)n3)c(F)c2)CC1c1ccc[nH]1 (centres undefined) : 102
COc1ccc(-c2nc3sccn3c2/C=C/C(=O)c2ccc3c(c2)OCO3)cc1 : 46.1

Consider the additional molecule presented here.
INPUT: I would be grateful if you could share the reported growth for CCCCN1C=CCN(CCCC)C1 .
OUTPUT: 42.6

====

- System: SR leukemia
- Test name: NCI-60 one-dose screen, 48 h
- Cond: 10 µM unless noted
Compounds without any hit were thinned out: in the full panel of roughly 83,000, 20% have a hit. Calls of active or inactive are those of the source. The calls were made as follows: active = growth percent below 10; inactive = the rest.
Allowed answers: true (1) = active, false (0) = inactive

INPUT: Assay result, entry COc1cc2c(-c3cc4c(cc3CNCCc3ccc5c(c3)OCO5)OCO4)cccc2c(OC)c1O — outcome?
OUTPUT: false (0)

INPUT: Identify the outcome logged in this assay for the compound shown: Cc1cc2nc3c4cc([N+](=O)[O-])ccc4n(CCN(C)C)c3nc2cc1C
OUTPUT: true (1)

INPUT: // return assay outcome for COCc1cnccc1NC1CCCCCC1
OUTPUT: false (0)

INPUT: What classification did C=CCN1C(=O)/C(=C/C(=O)OC)S/C1=N\NC(=O)c1cc2ccc1/C=C\c1ccc(cc1)/C=C\2 end up with in this test?
OUTPUT: true (1)

INPUT: Assay outcome for COc1cc(/C=C2\COc3ccc(-c4ccccc4)cc3C2=O)cc(OC)c1 : what was it?
OUTPUT: false (0)

INPUT: For O=C(CCN1CCCC1)Nc1ccc2c(Nc3ccc(F)cc3)c3ccccc3nc2c1 , what call appears in the results of this test?
OUTPUT: true (1)

INPUT: Assay outcome for O=S(=O)(NCCNc1nccc(-c2c(-c3cccc(F)c3)nc3sccn23)n1)c1ccc(Cl)cc1 : what was it?
OUTPUT: false (0)

INPUT: Short answer needed: outcome of this test for Nc1c(C(=O)Nc2ccnc3ccccc23)sc2nc3c(cc12)CN(Cc1ccccc1)CC3 ?
OUTPUT: false (0)

INPUT: What outcome does the record of this test show for COc1cc(NC(C)CCCNC(=O)CCC(=O)NCCCNCCCCCCCCCCNCCCNC(=O)CCC(=O)NCCCC(C)Nc2cc(OC)cc3cccnc23)c2ncccc2c1 (centres undefined) ?
OUTPUT: false (0)

====

- Test system: CAKI-1 renal
- Test name: NCI-60 one-dose screen, 48 h (100 = growth as untreated, 0 = no growth, -100 = all killed)
- Cond: 10 µM unless noted
- Experimental: Growth inhibition of the CAKI-1 human tumor cell line is measured as a screen for anti-cancer activity. Cells are grown in 96 well plates and exposed to the test compound for 48 hours. Compounds are tested at a single concentration, which is 10^-5 M for most compounds. The reported endpoint is percent growth (GI% or GIPRCNT), where numbers from 0 - 100% represent growth inhibition, and numbers from -100% - 0 represent cell death. For example, a value of 40 represents 60% growth inhibition. […]
Compounds without any hit were thinned out: in the full panel of roughly 83,000, 20% have a hit. The source made the active and inactive calls. The calls were made as follows: active = growth percent below 10; inactive = the rest.
Catalogue of growth values

INPUT: Find growth (CAKI-1 renal) for the entry COC(=O)C1=C(C(=O)ON)[C@@H]2C=C[C@@]1([C@@H](Cc1ccccc1)Nc1ccccc1)O2
OUTPUT: 86% (inactive)

INPUT: Value wanted: growth (CAKI-1 renal) of entry COc1cc2c(c(OC)c1OC)-c1ccc(NNC(=S)N(Cc3cccc(C[N+](Cc4cccc(CNC56CC7CC(CC(C7)C5)C6)c4)(Cc4cccc(CNC56CC7CC(CC(C7)C5)C6)c4)Cc4cccc(CN(C(=S)NNc5ccc6c(cc5=O)[C@@H](NC(C)=O)CCc5cc(OC)c(OC)c(OC)c5-6)C56CC7CC(CC(C7)C5)C6)c4)c3)C34CC5CC(CC(C5)C3)C4)c(=O)cc1[C@@H](NC(C)=O)CC2 (stereo partly drawn)
OUTPUT: 29% (inactive)

INPUT: # query: growth | item CC(C)(C)CC(C)(C)n1nnnc1C(NC12CC3CC(CC(C3)C1)C2)c1ccccc1 (stereo not drawn) | system: CAKI-1 renal
OUTPUT: 83.1% (inactive)
